target: Bek (Homo sapiens); assay: Inhibitory activity against Bek-autophosphorylation using ELISA method in OCUM-2MD3 cells; settings: 1 hr with compound, read-out: IC50 (concentration necessary for inhibiting 50% of Bek-phosphorylation)
Sequence (P21802 431-767 limits assumed): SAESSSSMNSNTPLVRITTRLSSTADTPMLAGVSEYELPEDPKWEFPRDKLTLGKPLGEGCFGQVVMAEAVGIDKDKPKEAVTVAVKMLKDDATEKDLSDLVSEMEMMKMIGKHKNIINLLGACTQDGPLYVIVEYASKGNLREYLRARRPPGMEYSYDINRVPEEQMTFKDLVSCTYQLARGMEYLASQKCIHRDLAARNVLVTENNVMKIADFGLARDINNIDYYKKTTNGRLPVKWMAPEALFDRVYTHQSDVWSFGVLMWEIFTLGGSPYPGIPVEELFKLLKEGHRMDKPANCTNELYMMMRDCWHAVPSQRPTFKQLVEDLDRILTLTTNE
Structures can show the parent of a compound that is named as a salt.
quantity: IC50 (nM)

Solved entries:
INSERT INTO results (compound, recorded_measurement) VALUES
  ('COc1cc2c(Oc3ccc(Nc4ccc(C(C)(C)C)cc4)cc3)ccnc2cc1OCCN1CCCN(C)CC1', 240),
  ('COc1cc2c(Oc3ccc(NC(=O)NCCC(C)(C)C)c(Cl)c3)ccnc2cc1OCC(O)CN1CCCCCC1 (stereo not drawn)', 19.7),
  ('COc1cc(Oc2ccnc3cc(OC)c(OC)cc23)ccc1NC(=O)NCCC(C)(C)C', 317),
  ('COc1cc2c(Oc3ccc(Nc4ccc(C(C)(C)C)cc4)cc3)ccnc2cc1OCC1CCCCN1C (stereo not drawn)', 8000),
  ('COc1cc2c(Oc3ccc(Nc4ccc(C(C)(C)C)cc4)cc3)ccnc2cc1OCCN1CCCCC1', 463),
  ('COc1cc2c(Oc3ccc(Nc4ccc(C(C)(C)C)cc4)cc3)ccnc2cc1OCCN1CCN(C)CC1', 155),
  ('COc1cc2c(Oc3ccc(Nc4ccc(C(C)(C)C)cc4)cc3Cl)ccnc2cc1OCCN(CCO)CCO', 294),
  ('COc1cc2c(Oc3ccc(NC(=O)NCCC(C)(C)C)cc3)ccnc2cc1OCCCN1CCCCC1 [Compound 154, hydrochloride]', 24.4),
  ('COCC1CCN(CCCOc2cc3nccc(Oc4ccc(NC(=O)NCCC(C)(C)C)cc4)c3cc2OC)CC1', 31.6);

(A) COc1cc2c(Oc3ccc(Nc4ccc(C(C)(C)C)cc4)cc3F)ccnc2cc1OCCN(CCO)CCO
(B) COc1cc2c(Oc3ccc(Nc4ccc(C(C)(C)C)cc4)cc3)ccnc2cc1OCc1csc(C)n1
Of A and B , which one carries the higher reported IC50? Write down the label attached to your selection.
B

The reported numbers originate from patent US7495104B2.
